# assayDetails: chemical genetic growth profiling, strain panel (AID 1159580);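 further: tested at 20 µM; growth read once vehicle control cultures reached saturation at 30 °C; 1 = growth at the plate median or of vehicle wells; lower values mean less growth of the strain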
# recordedConditions: S. cerevisiae deletion strains, growth OD, locus YDL214C, strain PRR2, hits give low values
The campaign covered roughly 5,500 compounds. About 2,000 (36%) were called active. About 18% were inconclusive and are not listed. The list shows a part of the results.
Flag rule - normalized growth less than 0.9 flags yes; the remaining entries get no.

Below are worked cases with known answers.
| compound | cat |
| --- | --- |
| Cc1nn(Cc2cccc(C(=O)O/N=C(/N)c3ccc(Cl)cc3)c2)c(C)c1Br | no |
| N#C/C(=N/Nc1ccc(Cl)cc1)C(N)=S | yes |
| N#CC(C#N)=NNc1ccc(C(F)(F)F)cc1 | yes |
| CCOC(=O)C(NC(C)=O)(Nc1ccc(F)c(Cl)c1)C(F)(F)F (stereo not given) | no |
| COc1cc(OC)cc(/C(N)=N\O)c1 | no |
| CCC1(c2ccccc2)OC(c2cc(Cl)cc(Cl)c2O)Nc2ccccc21 (stereo not given) | yes |
| Oc1ccc(-n2nnnc2SCc2ccc(OC(F)(F)F)cc2)cc1 | yes |
| CSc1nc(Sc2n[nH]c(-c3ccccc3)n2)cc(Sc2n[nH]c(-c3ccccc3)n2)n1 | no |
| CC(C)(C)c1cc(C(=O)/C(C#N)=N\Nc2ccc(Cl)cc2)no1 | yes |
| Cc1nc([N+](=O)[O-])cn1CC(=O)c1ccc(Cl)cc1 | no |

Field: below-cutoff. Rule: recorded normalized growth strictly less than 0.9. Subject: NNC(=O)COc1ccc(C2SCCS2)cc1
yes

Field: below-cutoff. Rule: recorded normalized growth strictly less than 0.9. Subject: Nc1ccc(N2CCN(c3ccc(C(F)(F)F)cn3)CC2)nc1
no

Field: below-cutoff. Rule: recorded normalized growth strictly less than 0.9. Subject: N/C(=N/OC(=O)c1ccccc1Cl)c1cccc(CS(=O)(=O)c2ccc(Cl)cc2)c1
no

Field: below-cutoff. Rule: recorded normalized growth strictly less than 0.9. Subject: COc1cccc(C(=O)C(C#N)=C(SC)SC)c1
yes

Field: below-cutoff. Rule: recorded normalized growth strictly less than 0.9. Subject: CCCCCc1ccc(-c2nc(SCC(C)=O)n[nH]2)cc1
yes

Field: below-cutoff. Rule: recorded normalized growth strictly less than 0.9. Subject: CSc1sc(-c2ccn[nH]2)c(-c2ccccc2)c1C#N
no

Field: below-cutoff. Rule: recorded normalized growth strictly less than 0.9. Subject: N#C/C(=C\C=C\c1ccccc1)c1nc2ccccc2[nH]1
yes

Field: below-cutoff. Rule: recorded normalized growth strictly less than 0.9. Subject: O=C(Oc1ccc(C2SCCS2)cc1)c1cccs1
yes

Field: below-cutoff. Rule: recorded normalized growth strictly less than 0.9. Subject: N#C/C(=C\c1ccc(C(F)(F)F)cc1)c1ccc(O)cc1
yes

Field: below-cutoff. Rule: recorded normalized growth strictly less than 0.9. Subject: Nc1ccccc1C(=O)N/N=C\c1cc(Cl)cc(Cl)c1O
yes

====

# assayDetails: chemical genetic growth profiling, strain panel (AID 1159580)
# recordedConditions: S. cerevisiae deletion strains, growth OD, locus YDR159W, strain sac3, hits give low values
In all, about 5,500 compounds went through this assay and about 2,000 (36%) were called active. Roughly 18% stayed inconclusive and do not appear here. Some of the results follow.
I'd be grateful if you could share measured normalized growth for these entries.
Numbers only.

| compound | normalized growth |
| --- | --- |
| CC(=O)OC1CCC2C3CCc4cc(O)ccc4C3CCC12C (centres undefined) | 0.842 |
| CC(=O)Oc1ccc2c(c1)CCC1C2CCC2(C)C1CC(OC(C)=O)C2OC(C)=O (centres undefined) | 0.902 |

Here are 3 compounds. What values of normalized growth were reported for them?
1. Cn1nnnc1SCC1=C(C(=O)O)N2C(=O)C(NC(=O)C(OC=O)c3ccccc3)C2SC1 (centres undefined)
2. COc1cc2ccc(=O)oc2c2ccoc12
3. COc1c2occc2cc2ccc(=O)oc12

1: 0.979; 2: 0.829; 3: 1.02

Here are 4 compounds. What values of normalized growth were reported for them?
1. O=C(O)c1cc2cc(Cl)ccc2[nH]1
2. COc1ccc2ccc(=O)oc2c1CC=C(C)C
3. Fc1ccc(C(c2ccc(F)cc2)N2CCN(C/C=C/c3ccccc3)CC2)cc1
4. C[C@H]1C(=O)O[C@@H]2CCN3CC=C(COC(=O)[C@](C)(O)[C@]1(C)O)[C@H]23

[0.977, 0.771, 0.15, 0.984]

====

I'd be grateful if you could share measured normalized growth for these entries.
# assayDetails: chemical genetic growth profiling, strain panel (AID 1159580)
# recordedConditions: S. cerevisiae deletion strains, growth OD, strain wtn01, hits give low values
Hit rate of the full screen: of about 5,500 compounds, about 2,000 (36%) were called active. Another 18% or so got no clear call; they are omitted. This is one part of the list.
Numbers only.

Guide cases for normalized growth, answers given:
| compound | endpoint | dataValue |
| --- | --- | --- |
| CNC(=O)CSP(=S)(OC)OC | normalized growth | 1.02 |
| COC(=O)C[C@H]1C(C)(C)[C@@H](OC(C)=O)[C@@H]2CC3C4CC(=O)O[C@@H](c5ccoc5)[C@]4(C)CCC3[C@@]1(C)C2=O (stereo partly drawn) | normalized growth | 1 |
| COc1cc2ccc(=O)oc2c2ccoc12 | normalized growth | 0.969 |

Here are 5 compounds. What values of normalized growth were reported for them?
1. COP(=S)(OC)SCn1nnc2ccccc2c1=O
2. CC(C)(O)CC[C@@H](O)[C@](C)(O)C1CC[C@@]2(O)C3=CC(=O)C4C[C@@H](O)[C@@H](O)C[C@]4(C)C3CC[C@]12C (stereo partly drawn)
3. C[C@H]1C(=O)O[C@@H]2CCN3CC=C(COC(=O)[C@](C)(O)[C@]1(C)O)[C@H]23
4. CCS(=O)(=O)CCn1c([N+](=O)[O-])cnc1C
5. COC(=O)C[C@H]1C(C)(C)C(OC(C)=O)[C@]2(O)C=C3C4CC(=O)O[C@@H](c5ccoc5)[C@]4(C)CCC3[C@@]1(C)C2=O (stereo partly drawn)

1. 0.981
2. 0.99
3. 0.987
4. 1
5. 0.991

====

I'd be grateful if you could share measured normalized growth for these entries.
# assayDetails: chemical genetic growth profiling, strain panel (AID 1159580);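 further: tested at 20 µM; growth read once vehicle control cultures reached saturation at 30 °C; 1 = growth at the plate median or of vehicle wells; lower values mean less growth of the strain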
# recordedConditions: S. cerevisiae deletion strains, growth OD, locus YJR043C, strain POL32, hits give low values
Among all 5,500 compounds or so, about 2,000 (36%) were called active. About 18% were inconclusive and are not listed. The list shows a part of the results.
Numbers only.

Guide cases for normalized growth, answers given:
| compound | dataValue |
| --- | --- |
| CCOc1ccc(Cc2nccc3cc(OCC)c(OCC)cc23)cc1OCC | 0.943 |
| N#C/C(=C\c1ccc(O)cc1)C(=O)O | 1.04 |
| CC(=O)Oc1ccc2c(c1)CCC1C2CC[C@@]2(C)C1CC[C@@H]2OC(C)=O (some centres undefined) | 0.976 |
| Cc1c(-n2cccc2)cc2c(c1[N+](=O)[O-])C(C)(C)CC2(C)C | 1.01 |
| CC1=C2[C@](C)(C=CC1=O)C[C@H](O)[C@H]1[C@H](C)C(=O)O[C@]21C | 1.02 |
| CC1=C(C(=O)O)N2C(=O)[C@@H](NC(=O)[C@H](N)C3=CCC=CC3)C2SC1 (some centres undefined) | 0.961 |

Here are 2 compounds. What values of normalized growth were reported for them?
1. Cc1cc(C)nc(NS(=O)(=O)c2ccc(N)cc2)n1
2. CC(C)=CCc1c(O)cc2occ(-c3ccc4c(c3)OCO4)c(=O)c2c1O

1. 1
2. 0.994

The compound listed as CCOc1nc2cccc(C(=O)OC(C)OC(=O)OC3CCCCC3)c2n1Cc1ccc(-c2ccccc2-c2nn[nH]n2)cc1 (centres undefined) has a reported normalized growth of 0.996

====

# assayDetails: chemical genetic growth profiling, strain panel (AID 1159580);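 further: tested at 20 µM; growth read once vehicle control cultures reached saturation at 30 °C; 1 = growth at the plate median or of vehicle wells; lower values mean less growth of the strain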
# recordedConditions: S. cerevisiae deletion strains, growth OD, locus YNR030W, strain Alg12, hits give low values
Hit rate of the full screen: of about 5,500 compounds, about 2,000 (36%) were called active. Roughly 18% stayed inconclusive and do not appear here. The list shows a part of the results.
endpoint: normalized growth
Numbers only.

Guide cases for normalized growth, answers given:
| compound | normalized growth |
| --- | --- |
| O=C(NC(c1ccccc1)C(N=Cc1ccccc1)c1ccccc1)c1ccccc1 (stereo not drawn) | 1.02 |
| CCn1cc([N+](=O)[O-])nc1C | 0.976 |

The compound listed as CSC(=Nc1ccc(C(C)C)cc1)NC#N has a reported normalized growth of 0.988

====

# assayDetails: chemical genetic growth profiling, strain panel (AID 1159580);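 further: tested at 20 µM; growth read once vehicle control cultures reached saturation at 30 °C; 1 = growth at the plate median or of vehicle wells; lower values mean less growth of the strain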
# recordedConditions: S. cerevisiae deletion strains, growth OD, locus YPR167C, strain met16, hits give low values
In all, about 5,500 compounds went through this assay and about 2,000 (36%) were called active. About 18% were inconclusive and are not listed. This is one part of the list.
I'd be grateful if you could share measured normalized growth for these entries.
Numbers only.

Guide cases for normalized growth, answers given:
| compound | dataValue |
| --- | --- |
| Cc1c(N(C)CS(=O)(=O)O)c(=O)n(-c2ccccc2)n1C | 0.977 |
| O=c1cc(-c2ccc(O)cc2)oc2cc(O[C@@H]3O[C@H](CO)[C@@H](O)[C@H](O)[C@H]3O[C@@H]3OC[C@](O)(CO)[C@H]3O)cc(O)c12 | 0.981 |
| CCCCC/C=C\C/C=C\C/C=C\C/C=C\CCCC(=O)O | 0.986 |

Here are 4 compounds. What values of normalized growth were reported for them?
1. CCCCC(=O)N(Cc1ccc(-c2ccccc2-c2nn[nH]n2)cc1)[C@H](C(=O)O)C(C)C
2. CC(=O)OC1CCC2C3CCc4cc(O)ccc4C3CCC12C (centres undefined)
3. COc1cc(O)c(C(=O)O)c(O)c1
4. C[C@]12CCC3c4ccc(O)cc4CCC3C1CC[C@@H]2OC(=O)CCC1CCCC1 (some centres undefined)

[0.976, 1.01, 1, 0.997]

Here are 2 compounds. What values of normalized growth were reported for them?
1. N#C/C(=C\c1ccc(O)cc1)C(=O)O
2. Cn1cnc([N+](=O)[O-])c1Sc1ncnc2nc[nH]c12

1. 0.984
2. 0.989

Numbers sourced from PubChem BioAssay AID1159580.
